# logP per record follows
Assay: LogP
Assay type: physicochemical
Conditions: read-out: LogP
Returns: the value as a bare number; no unit string appended.

Given the entry OB1OCc2cc(F)ccc21 [drawing 88] , report its measured logP.
1.9

Now look at this one.
Given the entry OB1OCc2cc(Cl)ccc21 [drawing 89] , report its measured logP.
2.3

----------
Experiment: LogP
Type: physicochemical
Details: table of b228; read-out: eLogP
measured-property: logP

Given the entry Fc1ccc2c(c1)COB2c1ccccc1 [Compound 3] , report its measured logP.
3.55

Data origin: patent US8106031B2
